experiment: Cytotoxicity against HEL cells assessed as growth inhibition after 3 days by coulter counter method; format: toxicity, cell-based; conditions: human, HEL cells
MEASURED_ENDPOINT: CC50 at 72 h

## Task Quickly give me recorded CC50 at 72 h for `O=c1[nH]c(=O)n([C@H]2C[C@H](O)[C@@H](CO)O2)cc1/C=C/Br`
## Result 160 to 300 µM

## Task Quickly give me recorded CC50 at 72 h for `Nc1nc2c(ncn2COCCO)c(=O)[nH]1`
## Result 191 to 224 µM

====

system: Human alphaherpesvirus 3; test: Antiviral activity against thymidine kinase deficient Varicella-Zoster virus 07-1 infected in HEL cells assessed as inhibition of virus plaque formation; assay type: functional, cell-based; details: Human alphaherpesvirus 3, 07-1, HEL
MEASURED_ENDPOINT: EC50

## Task Quickly give me recorded EC50 for `CCCn1cc(CN2CCCCC2)c2cc(NC(=O)c3ccccc3)ccc21`
## Result > 20 µM

## Task Quickly give me recorded EC50 for `Cn1cc(CCNCCc2ccc(-c3ccccc3)cc2)c2ccccc21`
## Result > 4 µM

## Task Quickly give me recorded EC50 for `Cn1cc(CCNc2ccc3ccccc3c2)c2ccccc21`
## Result > 100 µM

## Task Quickly give me recorded EC50 for `CCCn1cc(C(=O)c2ccc(Cl)cc2)c2ccccc21`
## Result > 100 µM

## Task Quickly give me recorded EC50 for `CCCn1cc(CN2CCCCC2)c2cc(CNc3ccc(Cl)cc3)ccc21`
## Result > 4 µM

## Task Quickly give me recorded EC50 for `CC(=O)N(CCc1cn(C)c2ccccc12)Cc1ccc(-c2ccccc2)cc1`
## Result > 20 µM

## Task Quickly give me recorded EC50 for `CCCn1cc(CNCCc2ccc(-c3ccccc3)cc2)c2ccccc21`
## Result > 0.8 µM

## Task Quickly give me recorded EC50 for `CCCn1cc(CN2CCCCC2)c2ccccc21`
## Result > 100 µM

## Task Quickly give me recorded EC50 for `CC(=O)N(CCc1cn(C)c2ccccc12)c1cccc2ccccc12`
## Result > 20 µM

## Task Quickly give me recorded EC50 for `c1ccc(-c2ccc(Cn3cc(CN4CCCCC4)c4ccccc43)cc2)cc1`
## Result > 4 µM

## Task Quickly give me recorded EC50 for `COC(=O)c1ccc(CNCCc2cn(Cc3ccc(-c4ccccc4)cc3)c3ccccc23)cc1`
## Result > 4 µM

====

For each entry below, report its MCC at 72 h value.
assay: Cytotoxicity against HEL cells assessed as alteration of cell morphology after 3 days by microscopic method; type: toxicity, cell-based; conditions: human
# number only, unit µM dropped from output

## Task Quickly give me recorded MCC at 72 h for `CCCn1cc(CNCCc2ccc(-c3ccccc3)cc2)c2ccccc21`
## Result 4

## Task Quickly give me recorded MCC at 72 h for `Cn1cc(CCN(CCc2ccc(-c3ccccc3)cc2)C(=O)C2CCCCC2)c2ccccc21`
## Result 20

## Task Quickly give me recorded MCC at 72 h for `CC(=O)N(CCc1cn(C)c2ccccc12)c1ccc2ccccc2c1`
## Result 20

## Task Quickly give me recorded MCC at 72 h for `COC(=O)c1ccc(CNCCc2cn(Cc3ccc(-c4ccccc4)cc3)c3ccccc23)cc1`
## Result 20

## Task Quickly give me recorded MCC at 72 h for `CC(=O)N(CCc1cn(C)c2ccccc12)Cc1cccc2ccccc12`
## Result 100

## Task Quickly give me recorded MCC at 72 h for `Cn1cc(CCN(CCc2ccc(-c3ccccc3)cc2)C(=O)CCN2CCOCC2)c2ccccc21`
## Result 20

====

assay: Cytotoxicity against HEL cells assessed as growth inhibition after 3 days by coulter counter method; assay type: toxicity, cell-based; conditions: human, hel, 72 h
MEASURED_ENDPOINT: CC50 (µM)
# number only, unit µM dropped from output

## Task Quickly give me recorded CC50 for `Cn1cc(CCNCCc2ccc(-c3ccccc3)cc2)c2ccccc21`
## Result 20

## Task Quickly give me recorded CC50 for `CCCn1cc(CN2CCCCC2)c2cc(NC(=O)c3ccccc3)ccc21`
## Result 31

## Task Quickly give me recorded CC50 for `COC(=O)c1ccc(CNCCc2cn(Cc3ccc(-c4ccccc4)cc3)c3ccccc23)cc1`
## Result 7.3

## Task Quickly give me recorded CC50 for `c1ccc(-c2ccc(Cn3cc(CN4CCCCC4)c4ccccc43)cc2)cc1`
## Result 6.9

## Task Quickly give me recorded CC50 for `CCCn1cc(CNCCc2ccc(-c3ccccc3)cc2)c2cc(CNc3ccc(Cl)cc3)ccc21`
## Result 9.7

## Task Quickly give me recorded CC50 for `Cn1cc(CCNc2ccc3ccccc3c2)c2ccccc21`
## Result 41

## Task Quickly give me recorded CC50 for `CCCn1cc(CN2CCCCC2)c2cc(CNc3ccc(Cl)cc3)ccc21`
## Result 15

## Task Quickly give me recorded CC50 for `Cn1cc(CCNCc2ccc(Cl)cc2)c2ccccc21`
## Result 22

## Task Quickly give me recorded CC50 for `COc1ccc(CNCCc2cn(C)c3ccccc23)cc1`
## Result 28

## Task Quickly give me recorded CC50 for `CCCn1cc(CNCCc2ccc(-c3ccccc3)cc2)c2ccccc21`
## Result 1.7

====

assay: Cytotoxicity against HEL cells assessed as alteration of cell morphology after 3 days by microscopic method; assay type: toxicity, cell-based; details: human
MEASURED_ENDPOINT: MCC at 72 h (µM)
# number only, unit µM dropped from output

## Task Quickly give me recorded MCC at 72 h for `CCCn1cc(CNCCc2ccc(-c3ccccc3)cc2)c2cc(CNc3ccc(Cl)cc3)ccc21`
## Result 20

## Task Quickly give me recorded MCC at 72 h for `Cn1cc(CCNCc2ccc(Cl)cc2)c2ccccc21`
## Result 20

## Task Quickly give me recorded MCC at 72 h for `COc1ccc(CNCCc2cn(C)c3ccccc23)cc1`
## Result 100

## Task Quickly give me recorded MCC at 72 h for `CC(=O)N(CCc1cn(C)c2ccccc12)Cc1ccc(-c2ccccc2)cc1`
## Result 100

## Task Quickly give me recorded MCC at 72 h for `CC(=O)N(CCc1cn(C)c2ccccc12)Cc1ccc(Oc2ccccc2)cc1`
## Result 20

## Task Quickly give me recorded MCC at 72 h for `CC(=O)N(CCc1cn(C)c2ccccc12)Cc1ccc2ccccc2c1`
## Result 20

====

assay: Cytotoxicity against HEL cells assessed as alteration of cell morphology after 3 days by microscopic method; assay type: toxicity, cell-based; details: human
For each entry below, report its MCC at 72 h value.

## Task Quickly give me recorded MCC at 72 h for `CCCn1cc(C(=O)c2ccc(Cl)cc2)c2ccccc21`
## Result > 100 µM

## Task Quickly give me recorded MCC at 72 h for `CC(=O)N(CCc1ccc(-c2ccccc2)cc1)CCc1cn(C)c2ccccc12`
## Result 20 to 35 µM

## Task Quickly give me recorded MCC at 72 h for Nc1ccn(C[C@@H](CO)OCP(=O)(O)O)c(=O)n1 [CIDOFOVIR]
## Result > 250 µM

## Task Quickly give me recorded MCC at 72 h for Nc1nc(O)c2ncn(COC(CO)CO)c2n1 [GANCICLOVIR]
## Result > 100 µM

====

test: Cytotoxicity against HEL cells assessed as growth inhibition after 3 days by coulter counter method; type: toxicity, cell-based; settings: human, hel, 72 h
MEASURED_ENDPOINT: CC50

## Task Quickly give me recorded CC50 for `CC(=O)N(CCc1ccc(-c2ccccc2)cc1)CCc1cn(C)c2ccccc12`
## Result 31 to 39 µM

## Task Quickly give me recorded CC50 for `CCCn1cc(C(=O)c2ccc(Cl)cc2)c2ccccc21`
## Result > 100 µM

## Task Quickly give me recorded CC50 for `CCCn1cc(CN2CCCCC2)c2ccccc21`
## Result > 100 µM
